biological target: HLA-B*07:02 class I complex (biotinylated heavy chain with beta2-microglobulin) (human); test: UV peptide exchange + HLA class I ELISA; % of Pos control peptide; conditions: remark: other sources report otherwise
MEASURED ENDPOINT: exchange rate with Pos peptide (%)

| BINDER | OBSERVED |
| --- | --- |
| LMAQRLLLR (here or on the partner: biotinylated heavy chain) [P97 9-mer neoantigen peptide … (FOXRED2-TXN2 fusion)] | 7 |
| YLRRQKRLK (here or on the partner: biotinylated heavy chain) [P60 9-mer neoantigen peptide … (FOXA1.p.F266L missense)] | 6.1 |
| IVWWCPMSR (here or on the partner: biotinylated heavy chain) [P98 9-mer neoantigen peptide … (TP53 (R213D) frameshift)] | 6.7 |
| QLIAMDSAI (here or on the partner: biotinylated heavy chain) [P22 9-mer neoantigen peptide … (SLC45A3-ELK4 fusion)] | 8.3 |

I: LLERNSFEV (here or on the partner: biotinylated heavy chain) [P73 9-mer neoantigen peptide … (TP53 (G266E) missense)]
II: YQFTFDLLI (here or on the partner: biotinylated heavy chain) [P48 9-mer neoantigen peptide … (AR.p.H875Y missense)]
Prompt: // which entry has the larger exchange rate with Pos peptide value, I or II ? Answer by stating the label of the chosen item.
Response: II
(II: 12.8%, I: 8.7%)
